Hello, the source for this data is the supplement of paper PMC10567573, in case you need it.

B1: NCK2 (parent)
chain: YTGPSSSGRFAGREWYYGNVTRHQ

variants of: B1; test: protein stability index of a GFP-peptide fusion (GPS, HEK-293T) (PSI 1-6); higher = more stable; conditions: c terminus: a fixed tail appended;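 note: lentivirally expressed fusions sorted by FACS into six bins by GFP to DsRed ratio, PSI derived from sequencing read proportions per bin multiplied by bin number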
measurement_name: protein stability index
Keep it simple and answer with nothing but the number.

Problem: Requested field: protein stability index. Item: `V20Q`
Solution: 1.83

Problem: Need protein stability index, item `P4E`
Solution: 2.31

Problem: Request the reported protein stability index associated with `Q24A`
Solution: 1.96

Problem: Fill blank: measured protein stability index of the variant `S5W` is ____.
Solution: 3.56

Problem: Reported protein stability index, variant `G3C` : ____
Solution: 1.83

Problem: Query: protein stability index; subject: `N19H`
Solution: 2.12

Problem: Entry under review: `T2P` . Reported protein stability index?
Solution: 3.3

Problem: Value lookup for protein stability index; key = `Y17P`
Solution: 1.76

Problem: I am curious: what protein stability index value has been reported for `Y16W` ?
Solution: 2.29

Problem: Dear colleague, I am looking for the recorded protein stability index of the following variant: `G3F`
Solution: 2.25

Problem: State the recorded protein stability index for this entry: `E14R`
Solution: 2.58

Problem: Quick check: protein stability index of `N19G` ?
Solution: 1.63

Problem: # query: protein stability index of entry `Q24K`
Solution: 2.42

Problem: # input variant: `T2V` ; wanted: its protein stability index
Solution: 2.32

Problem: Look at this variant and give its reported protein stability index. `Y1L`
Solution: 2.3

Problem: Looking for the measured protein stability index of `Q24R` , can you help?
Solution: 1.55

Problem: What value of protein stability index has been recorded for this entry: `Y17C`
Solution: 1.77

Problem: Returns the measured protein stability index for the input variant. Input: `V20M`
Solution: 1.85

Problem: Entry `Y17N` : reported protein stability index = ?
Solution: 1.59

Problem: Given the entry `W15C` , report its measured protein stability index.
Solution: 2.19

Problem: Quick one: protein stability index for `Y1K` ?
Solution: 2.75

Problem: Consider the variant `R13Q` and give its measured protein stability index.
Solution: 2.44

Problem: Which protein stability index is listed for `S6R` ?
Solution: 1.46

Problem: Quick check: protein stability index of `G12D` ?
Solution: 2.44

Problem: Entry under review: `E14D` . Reported protein stability index?
Solution: 1.4

Problem: Could you tell me which protein stability index is on file for `Y16N` ?
Solution: 2.13

Problem: Request the reported protein stability index associated with `E14F`
Solution: 1.95

Problem: Record request: protein stability index value, item `T21R`
Solution: 1.68

Problem: Given `N19E` , state its recorded protein stability index.
Solution: 1.53

Problem: Item `S7N` has what recorded protein stability index?
Solution: 1.47

Problem: Entry `R9V` has what protein stability index?
Solution: 1.85

Problem: Looking for the measured protein stability index of `G18D` , can you help?
Solution: 2.39

Problem: What does the record list as protein stability index for `Y17E` ?
Solution: 2.56

Problem: Sample `G3E` — what was its protein stability index?
Solution: 2.34

Problem: # input variant: `R9S` ; wanted: its protein stability index
Solution: 1.38

Problem: Item under review: `N19C` . Reported protein stability index?
Solution: 1.55

Problem: Returns the measured protein stability index for the input variant. Input: `R9I`
Solution: 3.13

Problem: What protein stability index value was documented for this variant, `Y1I` ?
Solution: 2.08

Problem: Endpoint output: protein stability index of `E14Y` . Value?
Solution: 1.3

Problem: I have this variant here, `P4S` , and I need its recorded protein stability index.
Solution: 1.79

Problem: Report protein stability index for `E14L` please.
Solution: 1.68

Problem: Value lookup for protein stability index; key = `R22E`
Solution: 1.85

Problem: Fill in: protein stability index of `N19L` is ___
Solution: 2.05

Problem: Fill blank: measured protein stability index of the variant `N19P` is ____.
Solution: 2.58

Problem: Give its protein stability index value. Item: `R9P`
Solution: 2.14

Problem: Which protein stability index value belongs to `P4M` ?
Solution: 2.37
